Hey, just so you know, these numbers are from patent US10214519B2.

Target: PI3Kβ (Homo sapiens (Human))
Sequence (P42338 whole entry, canonical isoform): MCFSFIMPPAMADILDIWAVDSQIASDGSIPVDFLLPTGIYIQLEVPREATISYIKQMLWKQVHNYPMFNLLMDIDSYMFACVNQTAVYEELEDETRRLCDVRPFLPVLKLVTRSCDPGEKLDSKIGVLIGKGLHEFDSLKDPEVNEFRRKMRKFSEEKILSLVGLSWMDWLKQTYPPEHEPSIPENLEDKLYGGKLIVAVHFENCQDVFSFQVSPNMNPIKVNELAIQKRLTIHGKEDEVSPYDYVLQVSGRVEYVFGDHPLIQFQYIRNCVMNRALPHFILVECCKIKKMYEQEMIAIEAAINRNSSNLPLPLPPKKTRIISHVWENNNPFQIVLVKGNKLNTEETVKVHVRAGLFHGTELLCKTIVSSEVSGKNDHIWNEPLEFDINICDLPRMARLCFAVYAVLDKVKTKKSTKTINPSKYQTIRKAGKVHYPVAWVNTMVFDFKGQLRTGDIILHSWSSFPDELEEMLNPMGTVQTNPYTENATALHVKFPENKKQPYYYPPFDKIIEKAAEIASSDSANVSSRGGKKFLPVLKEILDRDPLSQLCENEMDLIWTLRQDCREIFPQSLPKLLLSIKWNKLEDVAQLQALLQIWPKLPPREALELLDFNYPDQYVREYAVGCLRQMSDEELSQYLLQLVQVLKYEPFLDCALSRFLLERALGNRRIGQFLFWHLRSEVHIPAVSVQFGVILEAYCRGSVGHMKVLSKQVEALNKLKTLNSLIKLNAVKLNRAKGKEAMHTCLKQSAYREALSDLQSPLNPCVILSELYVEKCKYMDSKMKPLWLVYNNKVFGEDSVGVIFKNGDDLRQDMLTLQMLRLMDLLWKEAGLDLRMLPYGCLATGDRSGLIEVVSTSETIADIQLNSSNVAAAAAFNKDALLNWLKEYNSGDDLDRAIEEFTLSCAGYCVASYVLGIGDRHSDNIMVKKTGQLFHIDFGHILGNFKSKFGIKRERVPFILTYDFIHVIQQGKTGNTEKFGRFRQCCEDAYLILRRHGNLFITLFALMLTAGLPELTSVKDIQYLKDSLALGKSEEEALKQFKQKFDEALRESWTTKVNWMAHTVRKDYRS
Sequence (P27986 whole entry partner, canonical isoform): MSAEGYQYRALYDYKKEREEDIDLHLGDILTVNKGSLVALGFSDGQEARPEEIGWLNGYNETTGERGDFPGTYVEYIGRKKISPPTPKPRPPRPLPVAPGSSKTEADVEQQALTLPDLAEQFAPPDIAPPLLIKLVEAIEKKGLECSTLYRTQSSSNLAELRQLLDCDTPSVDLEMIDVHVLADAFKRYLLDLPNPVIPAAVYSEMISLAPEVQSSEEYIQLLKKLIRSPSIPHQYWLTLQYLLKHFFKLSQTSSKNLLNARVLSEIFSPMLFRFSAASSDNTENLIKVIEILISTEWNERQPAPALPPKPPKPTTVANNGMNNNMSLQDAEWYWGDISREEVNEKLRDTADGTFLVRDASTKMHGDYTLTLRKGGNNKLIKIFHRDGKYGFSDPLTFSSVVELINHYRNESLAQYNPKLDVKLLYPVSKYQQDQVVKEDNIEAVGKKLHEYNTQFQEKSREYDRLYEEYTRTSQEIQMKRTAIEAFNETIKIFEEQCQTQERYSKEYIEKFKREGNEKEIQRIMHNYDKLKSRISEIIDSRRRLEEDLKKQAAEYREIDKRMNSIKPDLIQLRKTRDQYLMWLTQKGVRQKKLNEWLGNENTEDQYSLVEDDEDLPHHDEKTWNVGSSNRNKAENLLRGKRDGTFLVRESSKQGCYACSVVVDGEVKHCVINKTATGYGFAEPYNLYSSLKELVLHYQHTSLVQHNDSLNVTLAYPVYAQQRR
Assay: PI3K isoform TR-FRET enzymatic assay (PI3Kβ)
Format: biochemical
Conditions: 2× Km ATP, 30 minutes at 25° C.
Protocol: The compounds of formula (I) were characterized for their enzymatic activity against the PI3K isoforms. The activities were measured using a time-resolved fluorescence resonance energy transfer (TR-FRET) assay. TR-FRET monitored the formation of 3,4,5-inositol triphosphate molecule that competed with fluorescently labeled PIP3 for binding to the GRP-1 pleckstrin homology domain protein. Class I PI3K isoforms were expressed and purified as heterodimeric recombinant proteins. […]
Provide the reported pIC50 of each item.
// pIC50 is dimensionless: -log10 of concentration (M)

IN: Data request, read-out pIC50, for Cc1nnc(-c2cc(N3CCOCC3)cc3c2ncn3-c2ccnc3cc(F)ccc23)[nH]1
OUT: 6.55

IN: Data request, read-out pIC50, for Cc1nc2c(-c3ccc(Cl)s3)cc(N3CCOCC3)cc2n1-c1ccnc2c(Cl)cccc12
OUT: 5.68

IN: Data request, read-out pIC50, for Fc1cccc2c(-n3c(C4CC4)nc4c(-c5nnc[nH]5)cc(N5CCOCC5)cc43)ccnc12
OUT: 7.19

IN: Data request, read-out pIC50, for CCc1nc2c(-c3nnc[nH]3)cc(N3CCOCC3)cc2n1-c1ccnc2c(F)ccc(Cl)c12
OUT: 7.54

IN: Data request, read-out pIC50, for Fc1ccc(F)c2c(-n3cnc4c(-c5ncco5)cc(N5CCOCC5)cc43)ccnc12
OUT: 8.30

IN: Data request, read-out pIC50, for CCCc1nc2c(-c3nnc(C)[nH]3)cc(N3CCOCC3)cc2n1-c1ccnc2c(C)ccc(F)c12
OUT: 7.70

IN: Data request, read-out pIC50, for CCc1nc2c(-c3cnc(Cl)[nH]3)cc(N3CCOCC3)cc2n1-c1ccnc2c(F)ccc(F)c12 (atropisomer, axis not shown) [Compound 347]
OUT: 8.15

IN: Data request, read-out pIC50, for Cc1csc(-c2cc(N3CCOCC3)cc3c2nc(C2CC2)n3-c2ccnc3c(F)ccc(F)c23)n1
OUT: 7.30
